Assay system HPK1 (Homo sapiens (Human)); read-out recorded as Ki.
One number for each entry, in nM.

Provide the reported Ki of each entry below, same order.
1. CN(CCC#N)C(=O)c1cccc(-c2cnc3c(c2)C2(CC2)CN3)c1F
2. CN(C)C(=O)c1c(N)ccc(-c2cnc3c(c2Cl)[C@]2(CN3)CC(O)C(n3ccnn3)C2)c1F (stereo in doubt) [Compound 146a]
3. C[C@H]1CNC(=O)N1c1cccc(-c2cnc3c(c2Cl)C2(CC2)CN3)c1 [Compound 69b]
4. CN(C)C(=O)c1c(N)ccc(-c2cnc3c(c2Cl)[C@]2(CCNC(=O)C2)CN3)c1F [Compound 122a]

Outgoing:
38.6
494
16
304
